Biological target: T1, 4EHP S99N used for ITC (human, UniProt O60573 1-245, S99N)
T1 sequence: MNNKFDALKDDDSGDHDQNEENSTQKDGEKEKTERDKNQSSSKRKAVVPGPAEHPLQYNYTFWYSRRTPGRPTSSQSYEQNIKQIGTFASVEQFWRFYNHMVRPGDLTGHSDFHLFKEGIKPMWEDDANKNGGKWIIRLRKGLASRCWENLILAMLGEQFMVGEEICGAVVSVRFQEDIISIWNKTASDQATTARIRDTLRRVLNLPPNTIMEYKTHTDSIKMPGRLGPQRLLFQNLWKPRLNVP
Experiment: ITC
TEST_READOUT: pKd
One number for each entry, as −log10 of the molar value.

Give its pKd value. Item: TRIIYDRKFLMECRNSPVTKTPPRDLPTIPGVTS [4E-BP1 peptide, ITC]
8.40
